Target: T1, mouse NMUR1-ATG (mouse, UniProt O55040 1-428)
T1 sequence (looked up): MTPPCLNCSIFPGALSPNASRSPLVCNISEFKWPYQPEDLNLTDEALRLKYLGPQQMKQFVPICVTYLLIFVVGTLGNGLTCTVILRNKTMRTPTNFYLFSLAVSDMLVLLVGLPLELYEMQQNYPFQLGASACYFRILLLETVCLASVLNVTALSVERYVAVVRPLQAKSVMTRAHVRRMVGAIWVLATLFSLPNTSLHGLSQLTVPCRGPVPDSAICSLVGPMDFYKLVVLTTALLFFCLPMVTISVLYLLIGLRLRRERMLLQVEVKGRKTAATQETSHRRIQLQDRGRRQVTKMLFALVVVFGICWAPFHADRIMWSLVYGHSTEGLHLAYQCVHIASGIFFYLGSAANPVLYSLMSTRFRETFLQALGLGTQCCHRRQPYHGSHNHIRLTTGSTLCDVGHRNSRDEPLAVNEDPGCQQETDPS
Assay: 125I-hNMU-25 displacement, cell membranes
Non-standard residues stand in square brackets, D forms with d. No end group written: not given here.
MEASUREMENT TYPE: pIC50
Answers are plain numbers, as −log10 of the molar value.

*Q* Consider the binder FRVDEEFQSPFASQSRGYF[dL]WRPRN-NH2 (not fully specified) [neuromedin U receptor agonist H] and give its measured pIC50.
*A* 7.18
